Below, each entry is listed alongside its reported pIC50.
assayed-target: T1, hRAGE-Fc (human, UniProt Q15109 23-342, biotin label in the selections and HTRF assays)
T1 construct: extracellular domain; also called biotin labeled hRAGE-Fc; Biotin-labeled RAGE-Fc; not shown: Fc part
T1 sequence (Q15109 23-342): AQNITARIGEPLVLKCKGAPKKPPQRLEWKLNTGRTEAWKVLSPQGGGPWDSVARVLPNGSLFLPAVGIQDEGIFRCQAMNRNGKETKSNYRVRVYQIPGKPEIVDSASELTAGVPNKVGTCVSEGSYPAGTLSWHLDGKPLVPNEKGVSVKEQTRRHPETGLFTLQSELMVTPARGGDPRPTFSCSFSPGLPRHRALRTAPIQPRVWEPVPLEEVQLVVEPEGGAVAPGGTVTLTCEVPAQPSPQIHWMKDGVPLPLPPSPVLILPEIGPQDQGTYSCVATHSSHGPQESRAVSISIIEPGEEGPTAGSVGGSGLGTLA
protocol: HTRF competition, scFv vs labelled parental XT-M4 (competitor) on hRAGE
pIC50: −log10 of the molar value.
assay-readout: pIC50

binder="6B6 scFv (scFv) scFv: DIQMTQSPSSLSASVGDRVTITCRASQDVGIYVNWFQQKPGKAPRRLIYRATNLADGVPSRFSGSRSGTDFTLTISSLQPEDFATYYCLEFDEHPLTFGGGTKVEIKDGGGSGGGGSGGGGSSEVQLVESGGGLVQPGGSLRLSCAASGFTFNNYWMTWVRQAPGKGLEWVASIDNSGDNTYYPDSVKDRFTISRDNAKNSLYLQMNSLRAEDTAVYYCARGGDIIISLDWWGQGTLVTVSS" result=9.19
binder="3B2 scFv (scFv) scFv: DIQMTQSPSSLSASVGDRVTITCRASQDVGIYVNWFQQKPGKAPRRLIYRATNLADGVPSRFSGSRSGTDFTLTISSLQPEDFATYYCLEFDEHPLTFGGGTKVEIKDGGGSGGGGSGGGGSSEVQLVESGGGLVQPGGSLRLSCAASGFTFNNYWMTWVRQAPGKGLEWVASIDNSGDNTYYPDSVKDRFTISRDNAKNSLYLQMNSLRAEDTAVYYCARGGDILVGLDYWGQGTLVTVSS" result=9.04
binder="S2R4A4_1G6 scFv (scFv) scFv: DIQMTQSPSSLSASVGDRVTITCRASQDVGFYVNWFQQKPGKAPRRLIYRATNLADGVPSRFSGSRSGTDFTLTISSLQPEDFATYYCLEFDEHPLTFGGGTKVEIKDGGGSGGGGSGGGGSSEVQLVESGGGLVQPGGSLRLSCAASGFTFNNYWMTWVRQAPGKGLEWVASIDNSGDNTYYPDSVKDRFTISRDNAKNSLYLQMNSLRAEDTAVYYCARGGDITNGFDYWGQGTLVTVSS" result=8.92
binder="6C2 scFv (scFv) scFv: DIQMTQSPSSLSASVGDRVTITCRASQDVGIYVNWFQQKPGKAPRRLIYRATNLADGVPSRFSGSRSGTDFTLTISSLQPEDFATYYCLEFDEHPLTFGGGTKVEIKDGGGSGGGGSGGGGSSEVQLVESGGGLVQPGGSLRLSCAASGFTFNNYWMTWVRQAPGKGLEWVASIDNSGDNTYYPDSVKDRFTISRDNAKNSLYLQMNSLRAEDTAVYYCARGGDIKVSLDRWGQGTLVTVSS" result=9.14
